System: Plasmodium falciparum
Method: Antimicrobial activity against chloroquine-sensitive Plasmodium falciparum D10
Type: functional
pIC50: −log10 of the molar value.
Reported pIC50 by item:
Value Type: pIC50

[[record]]
molecule = "OC12C3C4CC5C6C4C1C6C(C53)N2CCCCCCNc1ccnc2cc(Cl)ccc12 (centres undefined)"
subject_of_test = "Plasmodium falciparum"
value_type = "pIC50"
value_comparator = "="
assay_value = 7.75

[[record]]
molecule = "OC12C3C4CC5C6C4C1C6C(C53)N2CCCCNc1ccnc2cc(Cl)ccc12 (centres undefined)"
subject_of_test = "Plasmodium falciparum"
value_type = "pIC50"
value_comparator = "="
assay_value = 8.07

[[record]]
molecule = "OC12C3C4CC5C6C4C1C6C(C53)N2CCNc1ccnc2cc(Cl)ccc12 (centres undefined)"
subject_of_test = "Plasmodium falciparum"
value_type = "pIC50"
value_comparator = "="
assay_value = 8.43

[[record]]
molecule = "c1ccc(CNC23OC4C5C6CC(C7C6C4C72)C53)cc1 (centres undefined)"
subject_of_test = "Plasmodium falciparum"
value_type = "pIC50"
value_comparator = "<"
assay_value = 5.70

